Data credit: PubChem BioAssay (NCI)

# Test system: NCI-H23 lung
# method summary: NCI tumour cell line growth inhibition, 48 h
Task for the reader: assign each of the following compounds its reported TGI.

TGI for `COc1ccc2nc3cc([N+](=O)[O-])ccc3c(NCCCN(CCO)CCO)c2c1` is 14.2 µM

Recorded result, `CC(=O)OC(C)(C)/C=C/C(=O)[C@](C)(O)[C@H]1[C@H](O)C[C@@]2(C)[C@@H]3CC=C4[C@@H](C[C@H](O)C(=O)C4(C)C)[C@]3(CO)C(=O)C[C@]12C` , TGI: 14.7 µM

The recorded TGI for O=C(NCCCCCCNC(=O)n1cc(F)c(=O)[nH]c1=O)NCCCOCCOCCOCCOCCOCCOCCOCCOCCOCCOCCOCCOCCOCCOCCOCCOCCOCCOCCOCCOCCOCCCNC(=O)C(O)C(O)C(OC1OC(CO)C(O)C(O)C1O)C(O)CO (configuration not stated) is > 100 µM

Short answer for `O=[P+](O)c1cc2ccccc2c2ccccc12` : TGI was > 100 µM

Form: compound = `COc1cc(-c2csc(NC(=O)Nc3cc(C(F)(F)F)cc(C(F)(F)F)c3)n2)cc(OC)c1OC` ; TGI = 13.2 µM

Documented TGI of O=C(Nc1ccc2[nH]c(C(=O)N3CC(CCl)c4c3cc([N+](=O)[O-])c3ccccc43)cc2c1)c1cc2ccccc2o1 (configuration not stated) : > 1100 µM

# TGI (compound: CC(O)c1cc2c(s1)C(=O)c1scc(C(C)O)c1C2=O (configuration not stated) ) is 0.415 µM

What the record says about CCC(=O)C(C)C(=O)C(=O)C(=O)OC (configuration not stated) : TGI is > 100 µM

For record CCN(CC)CCCC(C)Nc1c2ccc(Cl)cc2nc2cc(OC)c(OC)cc12 (configuration not stated) the listed TGI is 3.25 µM

Entry `Cn1c(N=[N+]=[N-])cc(=O)n(C)c1=O` , TGI reported as > 100 µM

Recorded result, `CC1=C(C(=O)Nc2ccc([N+](=O)[O-])cc2)C(c2ccccc2O)C(C(=O)Nc2ccc([N+](=O)[O-])cc2)=C(C)N1` , TGI: 66.7 µM

Entry NC(=O)CCC(NC(=O)c1cccc2c(=O)c3ccccc3[nH]c12)C(=O)O (configuration not stated) , TGI reported as > 100 µM

For this compound ( Cc1ccc(S(=O)(=O)C2c3nc4ccccc4cc3-c3nc4ccccc4nc32)cc1 (configuration not stated) ), measured TGI is > 100 µM

Recorded result, `Cc1cc2c(c(C(=O)NCCC(=O)N[C@@H](C)C(=O)OCc3ccccc3)c1)Oc1c(cc(C)cc1C(=O)NCCC(=O)N[C@@H](C)C(=O)OCc1ccccc1)S2` , TGI: > 100 µM

# TGI (compound: NNC(=O)CCC(NS(=O)(=O)c1ccc(Cl)cc1)C(=O)NN (configuration not stated) ) is > 100 µM

get_value(item= `S=c1nc2sc3c(c2c(Nc2ccc(Br)cc2)[nH]1)CCN(N1CCc2c(sc4nc(=S)[nH]c(Nc5ccc(Br)cc5)c24)C1)C3` , readout=TGI) returns > 50 µM

Data point: `CO[C@H]1C[C@H](n2cc(C)c(=O)[nH]c2=O)O[C@@H]1CO` ; TGI = > 100 µM

---

# Tested on: T-47D breast
# method summary: NCI tumour cell line growth inhibition, 48 h
measurement type: TGI

Per the records, this compound ( `COc1ccc(-c2cn(-c3cccc(C(=O)/C=C/c4ccc(O)c(OC)c4)c3)c(=O)[nH]2)cc1` ) has TGI equal to 40.8 µM

// sample `O=C(/C=C/c1cccc([N+](=O)[O-])c1)c1ccc(O)c(CN2CCN(c3cc4c(cc3F)c(=O)c(C(=O)O)cn4C3CC3)CC2)c1` , its TGI was 4.99 µM

The compound `Cc1cc(C)c2c(=N)c3ccccc3n(CCCCCCn3c4ccccc4c(=N)c4c(C)cc(C)nc43)c2n1` showed TGI equal to 3.65 µM

Reported TGI of `COc1cc([C@@H]2c3cc4c(cc3[C@@H](N=Cc3ccc(C(=O)O[C@@H](C(=O)O[C@H]5C[C@@]6(O)[C@@H](OC(=O)c7ccccc7)[C@@H]7[C@]8(OC(C)=O)CO[C@@H]8C[C@H](O)[C@@]7(C)C(=O)[C@H](OC(C)=O)C(=C5C)C6(C)C)[C@@H](NC(=O)c5ccccc5)c5ccccc5)cc3)[C@H]3COC(=O)[C@H]23)OCO4)cc(OC)c1O` : > 50 µM

The compound listed as COC(=O)C(Cc1ccccc1)NC(=O)c1ccc(CNC(=S)NCc2cccc(CNC(=S)NCc3ccccc3)c2)cc1 (configuration not stated) shows TGI equal to > 62.5 µM

The measured TGI associated with `O=C(O)c1ccc2c3c(ncnc13)-c1ccccc1C2=O` reads > 100 µM

For record `COc1ccc(CCNC(=O)CCCCCO)cc1OC` the listed TGI is > 100 µM

compound CC(C)=CCCC1(Sc2ccccc2)C(=O)OCC1C=C(C)C (configuration not stated) , TGI observed: > 100 µM

Entry `COc1cc(-c2csc(NC(=O)Nc3cc(C(F)(F)F)cc(C(F)(F)F)c3)n2)cc(OC)c1OC` , TGI reported as 9.65 µM

Lookup result for `c1cncc(-c2nc3ccccc3s2)c1` ; measured TGI: > 100 µM

Sure, the documented TGI for `Cc1cc2c(cc1-c1cc3c(cc1C)C(C(C)C)=C(O)C(=O)/C3=C\Nc1c(C)n(C)n(-c3ccccc3)c1=O)/C(=C/Nc1c(C)n(C)n(-c3ccccc3)c1=O)C(=O)C(O)=C2C(C)C` is > 100 µM

The recorded TGI for entry Fc1cccc(CSc2ncnc3c2ncn3C2CCCS2)c1 (configuration not stated) equals > 100 µM

Lab note: `Cc1cc([N+](=O)[O-])ccc1NS(=O)(=O)c1cc(Cl)ccc1Cl` gave TGI of 8.01 µM

Reported TGI ( `Clc1cc(OCC23CC4CC(CC(C4)C2)C3)nc(OCC23CC4CC(CC(C4)C2)C3)n1` ) = > 100 µM

Lab book: TGI of `Cc1c(O)c(=O)ccn1CCc1c[nH]c2ccccc12` noted as 78 µM

Lab note: `COc1c2c(c(CC=C(C)C)c3oc(=O)c(-c4ccc(O)cc4)c(O)c13)OC(C)(C)C=C2` gave TGI of > 100 µM

Please fill in: TGI reported for `O=C1c2ccccc2-c2nnc(-c3ccc(Cl)cc3)cc21` = > 10 µM

---

# Test system: SK-OV-3 ovarian
# method summary: NCI tumour cell line growth inhibition, 48 h
Short version: TGI at least 9 µM is yes, less is no.

Problem: Please check the record `Cc1[nH]c(=O)nc2nc3ccc(Cl)cc3c(NC(C)(CO)CO)c12` and state if its TGI is at or above 9 µM.
Solution: yes

Problem: Check the entry COc1ccc(SC2c3ccc(C)cc3Oc3nc(N)c(C#N)c(N)c32)cc1 (stereo unspecified) : does TGI equal or exceed 9 µM?
Solution: no

Problem: Is reported TGI greater than or equal to 9 µM here: O=CC(Br)C(Br)c1ccccc1 (stereo unspecified)
Solution: yes

Problem: Dear colleague, could you confirm whether Cc1ccc(S(=O)(=O)C2c3nc4ccccc4cc3-c3nc4ccccc4nc32)cc1 (stereo unspecified) has TGI at or above 9 µM?
Solution: yes

Problem: API: above_or_equal(metric=TGI, cutoff=9 µM) for item Oc1ccc2ccccc2c1C1NN=C(c2ccccc2)S1 (stereo unspecified)
Solution: yes

Problem: Has `Cc1ccc(-c2cc(=O)c3cc(C)c(C)c(C(=O)O)c3o2)cc1` a recorded TGI greater than or equal to 9 µM?
Solution: yes

Problem: Does TGI meet or surpass 9 µM for `COP(=O)(OC)c1ccc(NCc2cc(O)ccc2O)cc1` ?
Solution: yes

Problem: Has `C[C@]1(C(=O)O)N[C@H](C(=O)O)CS1` a recorded TGI greater than or equal to 9 µM?
Solution: yes

Problem: Is the recorded value of TGI equal to or greater than 9 µM for this compound? `COc1ccc(-c2nnc(-c3c(C)n(C)n(-c4ccccc4)c3=O)o2)cc1`
Solution: yes

Problem: Has `CCCCCCCCCCCCCCCCCCOc1ccc(/C=C/C2=[N+](CCCl)CCO2)cc1` a recorded TGI greater than or equal to 9 µM?
Solution: yes

Problem: Could you please find out whether CC(=O)C1COC(O)C1C (stereo unspecified) has TGI that meets 9 µM or exceeds it?
Solution: yes

Problem: Tell me whether TGI is at least 9 µM here: COC12OC3CC4(C)C(=CC3OC(OC(C)C1O)C2O)CCC1C4CCC2(C)C(c3ccc(=O)oc3)CCC12O (stereo unspecified)
Solution: no

Problem: Say whether `CSc1nc(SC)c2c(C(N)=S)[nH]nc2n1` shows TGI of 9 µM or more.
Solution: yes

Problem: Does the compound `COc1cc(-c2csc(NC(=O)Nc3cc(C(F)(F)F)cc(C(F)(F)F)c3)n2)cc(OC)c1OC` have recorded TGI that is 9 µM or more?
Solution: no

Problem: Dear colleague, could you confirm whether `Cn1cc(-c2nc(-c3c[nH]c4ccncc34)cs2)c2cc(F)ccc21` has TGI at or above 9 µM?
Solution: no

Problem: Determine whether measured TGI meets or exceeds 9 µM for CCCC(=O)Nc1cc(/C=C/C(=O)N2CC(CCl)c3c2cc([N+](=O)[O-])c2ccccc32)n(C)c1 (stereo unspecified)
Solution: yes

Problem: Quick check: does CCOc1cc2c(cc1O)CC[C@@H]1[C@@H]2CC[C@]2(C)C(OS(=O)OC3CC[C@@H]4[C@H]5CCc6cc(O)c(OCC)cc6[C@@H]5CC[C@@]34C)CC[C@@H]12 (stereo partly specified) have TGI greater than or equal to 9 µM?
Solution: yes

Problem: Reported TGI reaches at least 9 µM for `COc1ccc2nc3cc([N+](=O)[O-])ccc3c(NCCCN(CCO)CCO)c2c1` ?
Solution: yes

Problem: API: above_or_equal(metric=TGI, cutoff=9 µM) for item O=C(O)C(C(=O)C(=O)C(C(=O)O)c1ccc(Cl)cc1)c1ccc(Cl)cc1 (stereo unspecified)
Solution: yes

Problem: In plain terms: is recorded TGI at least 9 µM for `COc1ccc([I+]c2ccccc2)cc1` ?
Solution: yes

Problem: Is it the case that `CCOc1ccc2nc(-c3cccc(OCC(=O)NC(C)C)c3)nc(Nc3ccc(-c4cn[nH]c4)cc3)c2c1` has TGI reaching or exceeding 9 µM?
Solution: yes
